Target: PI3K-gamma (Homo sapiens)
Sequence (P48736 whole entry, species assumed): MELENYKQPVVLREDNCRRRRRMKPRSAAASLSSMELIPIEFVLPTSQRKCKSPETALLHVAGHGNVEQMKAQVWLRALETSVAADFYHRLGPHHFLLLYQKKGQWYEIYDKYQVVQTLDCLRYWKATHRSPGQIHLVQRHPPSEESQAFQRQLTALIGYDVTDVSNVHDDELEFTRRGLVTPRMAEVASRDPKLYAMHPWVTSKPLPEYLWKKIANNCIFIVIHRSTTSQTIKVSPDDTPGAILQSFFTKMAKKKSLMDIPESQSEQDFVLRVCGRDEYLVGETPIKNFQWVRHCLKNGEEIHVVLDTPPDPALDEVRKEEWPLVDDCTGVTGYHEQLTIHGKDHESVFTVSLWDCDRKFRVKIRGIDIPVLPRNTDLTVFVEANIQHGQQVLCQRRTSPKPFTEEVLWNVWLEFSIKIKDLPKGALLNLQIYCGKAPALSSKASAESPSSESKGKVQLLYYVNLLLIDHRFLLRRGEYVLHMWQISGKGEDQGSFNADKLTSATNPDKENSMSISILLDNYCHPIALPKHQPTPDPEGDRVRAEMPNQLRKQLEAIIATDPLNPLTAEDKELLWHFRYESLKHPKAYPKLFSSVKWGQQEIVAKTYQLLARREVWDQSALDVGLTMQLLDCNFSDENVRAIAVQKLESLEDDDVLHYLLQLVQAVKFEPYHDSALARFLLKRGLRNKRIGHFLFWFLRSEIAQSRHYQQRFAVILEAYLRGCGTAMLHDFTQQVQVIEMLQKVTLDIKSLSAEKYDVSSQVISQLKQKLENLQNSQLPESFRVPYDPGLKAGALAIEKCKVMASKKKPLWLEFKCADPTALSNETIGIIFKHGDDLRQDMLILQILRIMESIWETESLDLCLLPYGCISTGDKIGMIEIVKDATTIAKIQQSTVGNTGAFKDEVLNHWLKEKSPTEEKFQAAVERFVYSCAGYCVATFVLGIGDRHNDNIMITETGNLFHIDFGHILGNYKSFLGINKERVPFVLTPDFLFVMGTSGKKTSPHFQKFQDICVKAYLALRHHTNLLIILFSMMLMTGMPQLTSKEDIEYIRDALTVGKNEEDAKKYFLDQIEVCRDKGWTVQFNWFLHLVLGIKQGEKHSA
Parameter class (string): assigned from measured IC50. Ranges: lower: < 50 nM; middle: ≥ 50 nM and < 200 nM; upper: ≥ 200 nM

- Compound: "O=C(Nc1ccc(-c2nc(N3CCOCC3)nc(N3CCOCC3)n2)cc1)Nc1ccc(C(O)(C(F)(F)F)C(F)(F)F)cc1 [Example 86]"
  Assigned label: "upper"
- Compound: "CN1CCN(C(=O)c2ccc(NC(=O)Nc3ccc(-c4nc(C5CCOCC5)nc(N5CCOCC5)n4)cc3)cc2)CC1(C)C [Example 865]"
  Assigned label: "lower"
- Compound: "CC(=O)NC1CCN(C(=O)c2ccc(NC(=O)Nc3ccc(-c4nc(N5CCOC[C@@H]5C)nc(N5CCOC[C@@H]5C)n4)cc3)cc2)CC1 [Example 837]"
  Assigned label: "middle"
- Compound: "CC(C)N1CCCN(C(=O)c2ccc(NC(=O)Nc3ccc(-c4nc(N5CCOCC5)nc(N5CCCN(C(C)C)CC5)n4)cc3)cc2)CC1 [Example 862]"
  Assigned label: "middle"
- Compound: "CC(C)N1CCCN(c2nc(-c3ccc(NC(=O)Nc4ccc(C(=O)N5CCCNCC5)cc4)cc3)nc(N3CCOCC3)n2)CC1 [Example 861]"
  Assigned label: "middle"
- Compound: "C[C@H]1COCCN1c1nc(-c2ccc(NC(=O)Nc3ccc(C(=O)N4CC[C@@H](N(C)C)C4)cc3)cc2)nc(N2CCOC[C@@H]2C)n1 [Example 842]"
  Assigned label: "middle"
- Compound: "Cc1ccc(NC(=O)Nc2ccc(-c3nc(NC4CN(C(=O)OC(C)(C)C)C4)nc(N4CCOCC4)n3)cc2)cc1 [Example 16]"
  Assigned label: "upper"
- Compound: "COc1ccc(NC(=O)Nc2ccc(-c3nc(N4CCOCC4)nc(N4CCOCC4)n3)cc2)c(OC)c1 [Example 7]"
  Assigned label: "upper"
- Compound: "CC1CNCCN1C(=O)c1ccc(NC(=O)Nc2ccc(-c3nc(N4CCOCC4)nc(N4CCOCC4)n3)cc2)cc1 (stereo not shown) [Example 845]"
  Assigned label: "lower"
- Compound: "CC(C)N1CCCN(c2nc(-c3ccc(NC(=O)Nc4ccc(C(=O)N5CC[C@H](N(C)C)C5)cc4)cc3)nc(N3CCOC[C@@H]3C)n2)CC1 [Example 856]"
  Assigned label: "upper"
- Compound: "CCN(CC)CCOC(=O)c1ccc(NC(=O)Nc2ccc(-c3nc(N4CCOCC4)nc(N4C5CCC4COC5)n3)cc2)cc1 [Example 675]"
  Assigned label: "middle"
- Compound: "CC(C)N1CCCN(c2nc(-c3ccc(NC(=O)Nc4ccc(C(=O)N5CCOCC5)cc4)cc3)nc(N3CCOCC3)n2)CC1 [Example 859]"
  Assigned label: "upper"
- Compound: "C[C@H]1CN(C(=O)c2ccc(NC(=O)Nc3ccc(-c4nc(N5CCOCC5)nc(N5CCOCC5)n4)cc3)cc2)CCN1 [Example 853]"
  Assigned label: "lower"
